Where these numbers come from: patent EP4389150A1

tested.system: prostate-specific membrane antigen (PSMA)
measurement.protocol: cell uptake of 68Ga-labelled ligand (0.4 nM) on LNCaP cells, gamma counting
quantity: % bound of total applied dose

[[record]]
substance = "PSMARuc-11: DOTAGA-D-Lys(Ruc-SS)-D-Asp-D-Tyr-D-Phe-L-Nal-Ahx-KuE (peptide)"
tested_system = "prostate-specific membrane antigen (PSMA)"
quantity = "% bound of total applied dose"
observed = "6.45%"

[[record]]
substance = "PSMARuc-12: DOTAGA-D-Lys(Ruc-SS)-D-Asp-D-Tyr-D-Phe-D-Phe-Ahx-Ahx-KuE (peptide)"
tested_system = "prostate-specific membrane antigen (PSMA)"
quantity = "% bound of total applied dose"
observed = "3.48%"

[[record]]
substance = "PSMARuc-15: Ruc-SS-MMC-D-Asp-D-Asp-D-Tyr-D-Phe-D-Phe-Ahx-Ahx-KuE (peptide)"
tested_system = "prostate-specific membrane antigen (PSMA)"
quantity = "% bound of total applied dose"
observed = "6.5%"

[[record]]
substance = "PSMARuc-9: DOTAGA-D-Lys(Ruc-SS)-D-Asp-β-Ala-TXA-L-Nal-KuE (peptide)"
tested_system = "prostate-specific membrane antigen (PSMA)"
quantity = "% bound of total applied dose"
observed = "8%"

[[record]]
substance = "PSMARuc-17: DOTAGA-D-Lys(Ruc-SS)-D-Asp-D-Asp-D-Tyr-D-Phe-D-Phe-Ahx-D-Lys-EuE (peptide)"
tested_system = "prostate-specific membrane antigen (PSMA)"
quantity = "% bound of total applied dose"
observed = "5.84%"

[[record]]
substance = "PSMARuc-16: DOTAGA-D-Lys(Ruc-SS)-D-Asp-D-Asp-β-Ala-TXA-L-Nal-D-Lys-EuE (peptide)"
tested_system = "prostate-specific membrane antigen (PSMA)"
quantity = "% bound of total applied dose"
observed = "5.32%"

[[record]]
substance = "PSMARuc-10: DOTAGA-D-Lys(Ruc-SS)-D-Asp-D-Tyr-D-Phe-D-Phe-Ahx-KuE (peptide)"
tested_system = "prostate-specific membrane antigen (PSMA)"
quantity = "% bound of total applied dose"
observed = "6.18%"

[[record]]
substance = "PSMARuc-13: DOTAGA-D-Lys(Ruc-Sub)-D-Asp-β-Ala-TXA-L-Nal-KuE (peptide)"
tested_system = "prostate-specific membrane antigen (PSMA)"
quantity = "% bound of total applied dose"
observed = "10.8%"

